# test.name: clinical
# test.settings: human, in vivo, iv, CL
Lab note: compare clearance against 10 mL/min/kg. Equal or greater, write Condition met. Smaller, write Condition not met.

Here are 5 molecules together with their reported answers.
Clc1ccc2nsnc2c1NC1=NCCN1 :: Condition met
CN(C)CCc1c[nH]c2ccc(Cn3cncn3)cc12 :: Condition met
CCCCCCCCCCNCCN[C@@]1(C)C[C@H](O[C@H]2[C@H](Oc3c4cc5cc3Oc3ccc(cc3Cl)[C@@H](O)[C@@H](NC(=O)[C@@H](CC(C)C)NC)C(=O)N[C@@H](CC(N)=O)C(=O)N[C@H]5C(=O)N[C@H]3C(=O)N[C@H](C(=O)N[C@H](C(=O)O)c5cc(O)c(CNCP(=O)(O)O)c(O)c5-c5cc3ccc5O)[C@H](O)c3ccc(c(Cl)c3)O4)O[C@H](CO)[C@@H](O)[C@@H]2O)O[C@@H](C)[C@H]1O :: Condition not met
CN(C)CCN(Cc1cccs1)c1ccccn1 :: Condition met
CN1C(=O)CC[C@H]1c1cccnc1 :: Condition not met

Please check the record CCOc1ccc(/C=C2\NCCc3cc(OCC)c(OCC)cc32)cc1OCC and state if its clearance is at or above 10 mL/min/kg.
Condition not met

Is it the case that Nc1ncnc2c1ncn2CCOCP(=O)(O)O has clearance reaching or exceeding 10 mL/min/kg?
Condition not met

Decide: clearance of OC(CNCC(O)C1CCc2cc(F)ccc2O1)C1CCc2cc(F)ccc2O1 (stereo not given) >= 10 mL/min/kg?
Condition met

Threshold query (clearance >= 10 mL/min/kg) on CCC[C@@H]1C[C@@H](C(=O)N[C@@H]([C@H]2O[C@H](SC)[C@H](O)[C@@H](O)[C@H]2O)[C@H](C)Cl)N(C)C1
Condition not met

Determine whether measured clearance meets or exceeds 10 mL/min/kg for O=C1Cc2cc(CCN3CCN(c4nsc5ccccc45)CC3)c(Cl)cc2N1
Condition not met

Can CC[C@]1(O)C[C@H]2CN(CCc3c([nH]c4ccccc34)[C@@](C(=O)OC)(c3cc4c(cc3OC)N(C=O)[C@H]3[C@@](O)(C(=O)OC)[C@H](OC(C)=O)[C@]5(CC)C=CCN6CC[C@]43[C@@H]65)C2)C1 be said to have clearance at or above 10 mL/min/kg?
Condition not met

Quick check: does COc1cc2nc(N3CCN(C(=O)C4CCCO4)CC3)nc(N)c2cc1OC (stereo not given) have clearance greater than or equal to 10 mL/min/kg?
Condition not met

API: above_or_equal(metric=clearance, cutoff=10 mL/min/kg) for item CCN(C)C(=O)Oc1cccc([C@H](C)N(C)C)c1
Condition met

Given the entry NC(=O)OC[C@@H]1[C@H](NC(=O)/C(=N\OCC(=O)O)c2csc(N)n2)C(=O)N1S(=O)(=O)O , answer whether its clearance meets or surpasses 10 mL/min/kg.
Condition not met

Given the entry N/N=c1/cc2c(n[nH]1)CCN(C(=O)c1ccccc1)C2 , answer whether its clearance meets or surpasses 10 mL/min/kg.
Condition met

----------
Here the recorded MRT is given for each entry.
# test.name: clinical
# test.settings: human, in vivo, iv
Numbered stars: 1 amine (or outer) side, 2 acyl side, 3 side chain; on linkers, the order of the positions; unused ones are H or OH. Bridge positions count the residues as written; N and C are the ends. Square brackets hold non-standard residues; d marks the D form. Peptide text beside a SMILES is read from it. * marks the point of attachment. pTerphenylCO(4''-OnC5H11) = CCCCCOc1ccc(-c2ccc(-c3ccc(C(=O)*)cc3)cc2)cc1; Orn(4R-OH,5R-OH) = O=C([C@H](C[C@@H](O)[C@@H](O)N[*:3])N[*:1])[*:2]; hTyr(3S-OH,4S-OH) = N[C@H](C(=O)O)[C@H](O)[C@@H](O)c1ccc(O)cc1; Pro(3S-OH,4S-Me) = C[C@H]1CN[C@H](C(=O)O)[C@H]1O; Hyp = O=C(O)[C@@H]1C[C@@H](O)CN1

Reference set (6 entries):
CCCCCOc1ccc(-c2ccc(-c3ccc(C(=O)N[C@H]4C[C@@H](O)[C@@H](O)NC(=O)[C@@H]5[C@@H](O)[C@@H](C)CN5C(=O)[C@H]([C@@H](C)O)NC(=O)[C@H]([C@H](O)[C@@H](O)c5ccc(O)cc5)NC(=O)[C@@H]5C[C@@H](O)CN5C(=O)[C@H]([C@@H](C)O)NC4=O)cc3)cc2)cc1 [ANIDULAFUNGIN] ({pTerphenylCO(4''-OnC5H11)}-[Orn(4R-OH,5R-OH)]T[Hyp][hTyr(3S-OH,4S-OH)]T[Pro(3S-OH,4S-Me)]; lactam 1-C) :: 45 h
Cc1cc(O)c2c(=O)c3c(O)cc(O)c4c5c(O)cc(O)c6c(=O)c7c(O)cc(C)c8c1c2c(c34)c(c78)c65 :: 32 h
O=C1CN=C(c2ccccc2Cl)c2cc(Cl)ccc2N1 :: 220 h
Cc1onc(-c2c(Cl)cccc2Cl)c1C(=O)N[C@@H]1C(=O)N2[C@@H]1SC(C)(C)[C@@H]2C(=O)O :: 0.92 h
CCOc1ccccc1OC(c1ccccc1)C1CNCCO1 (stereo not given) :: 13 h
CC1=C(CO)C2=C(C)C3(CC3)[C@@](C)(O)C(=O)C2=C1 :: 0.4 h

Supply MRT value. Item: CO/N=C(\C(=O)N[C@@H]1C(=O)N2C(C(=O)O)=C(C)CS[C@H]12)c1csc(N)n1
2.5 h

Report MRT, nothing else, for this molecule: C[C@@H]1C(=O)O[C@H]2C[C@@]34[C@H]5C[C@@H](C(C)(C)C)[C@]36[C@@H](OC(=O)[C@@H]6O)O[C@@]4(C(=O)O5)[C@]21O [GINKGOLIDE A]
4.6 h

Give me measured MRT, please, for this molecule: CC[C@H](C)C[C@H](C)CCCCCCCCC(=O)N[C@H]1C[C@@H](O)[C@@H](NCCN)NC(=O)[C@@H]2[C@@H](O)CCN2C(=O)[C@H]([C@H](O)CCN)NC(=O)[C@H]([C@H](O)[C@@H](O)c2ccc(O)cc2)NC(=O)[C@@H]2C[C@@H](O)CN2C(=O)[C@H]([C@@H](C)O)NC1=O
15 h

For the molecule COC(=O)O[C@@]12CO[C@@H]1C[C@H](O)[C@@]1(C)C(=O)[C@H](OC(C)=O)C3=C(C)[C@@H](OC(=O)[C@H](O)[C@@H](NC(=O)c4ccccc4)c4ccccc4)C[C@@](O)([C@@H](OC(=O)c4ccccc4)[C@H]21)C3(C)C , report MRT.
13 h

Recorded values, source ChEMBL document CHEMBL1614632.
